# assayed_system: UniProt P53350
# Sequence (P53350 whole entry): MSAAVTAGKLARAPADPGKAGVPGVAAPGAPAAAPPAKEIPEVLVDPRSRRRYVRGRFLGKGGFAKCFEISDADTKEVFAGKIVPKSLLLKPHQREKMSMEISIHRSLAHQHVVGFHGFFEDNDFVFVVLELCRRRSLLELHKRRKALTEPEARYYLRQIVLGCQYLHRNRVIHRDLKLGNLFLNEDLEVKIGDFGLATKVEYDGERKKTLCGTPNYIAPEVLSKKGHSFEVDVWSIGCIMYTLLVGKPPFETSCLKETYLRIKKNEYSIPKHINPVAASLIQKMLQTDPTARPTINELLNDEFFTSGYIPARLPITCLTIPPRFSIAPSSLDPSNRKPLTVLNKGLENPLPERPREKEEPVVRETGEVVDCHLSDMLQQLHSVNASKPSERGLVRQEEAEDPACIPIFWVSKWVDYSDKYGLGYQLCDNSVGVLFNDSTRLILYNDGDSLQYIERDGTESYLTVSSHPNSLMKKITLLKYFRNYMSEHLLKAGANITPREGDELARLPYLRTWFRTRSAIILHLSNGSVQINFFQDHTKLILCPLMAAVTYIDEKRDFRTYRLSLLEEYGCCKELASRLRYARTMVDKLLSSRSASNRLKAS
Assign classes using reported IC50 values and the ranges LOW (below 30 nM), MID (30 nM to below 80 nM), HIGH (80 nM or more), please.

{"columns": ["molecule", "classification"],
 "data": [
  ["COc1cc2ncn(-c3nc(-c4cccc(Cl)c4)c(C(N)=O)s3)c2cc1OCCN1CCOCC1", "LOW"],
  ["COc1cc2ncn(-c3nc(-c4cccc(Cl)c4)c(C(N)=O)s3)c2cc1CN1CCN(C)CC1", "LOW"],
  ["CN1CCN(CC(O)COc2ccc3ncn(-c4nc(-c5cccc(Cl)c5)c(C(N)=O)s4)c3c2)CC1 (centres unmarked)", "MID"],
  ["CN(C)CCOc1ccc2ncn(-c3nc(-c4cccc(Cl)c4)c(C(N)=O)s3)c2c1", "HIGH"],
  ["NC(=O)c1sc(-n2cnc3ccc(OCC4CCNCC4)cc32)nc1-c1cccc(Cl)c1", "LOW"],
  ["NC(=O)c1sc(-n2cnc3ccc(CCCCN4CCOCC4)cc32)nc1-c1cccc(Cl)c1", "LOW"],
  ["NC(=O)c1sc(-n2cnc3ccc(CN4CCC(N)CC4)cc32)nc1-c1cccc(Cl)c1", "MID"],
  ["CC(C)(C)OC(=O)NC1CCN(Cc2ccc3ncn(-c4nc(-c5cccc(Cl)c5)c(C(N)=O)s4)c3c2)CC1", "HIGH"],
  ["CN1CCN(CCOc2ccc3ncn(-c4nc(-c5cccc(Cl)c5)c(C(N)=O)s4)c3c2)CC1", "HIGH"],
  ["CN1CCN(CCCCOc2ccc3ncn(-c4nc(-c5cccc(Cl)c5)c(C(N)=O)s4)c3c2)CC1", "LOW"]
]}
